Below, each entry is listed with its recorded pest or weed control at 400 µg/mL.
- Test system: rice sheath blight strains
- Test Details: Bactericidal activity test: resistance to rice sheath blight (live pot test)
- Assay type: in vivo
- Protocol Conditions: Oryza sativa, 144 h, read-out: bactericidal activity against rice sheath blight

* Cc1ccc(S(=O)(=O)n2c3ccccc3c3c2cc2cc(C)ccc2[n+]3C)cc1 | > 50%
* Cc1ccc(S(=O)(=O)n2c3ccccc3c3c2cc2ccccc2[n+]3C)cc1 | > 95%
* Cc1ccc(S(=O)(=O)n2c3ccc(F)cc3c3c2cc2ccccc2[n+]3C)cc1 | > 50%
* C[n+]1c2ccccc2cc2c1c1ccccc1n2S(=O)(=O)c1ccccc1 | > 50%

INPUT: Give rice sheath blight strains pest or weed control at 400 µg/mL for Cc1ccc(S(=O)(=O)n2c3ccccc3c3c2cc2ccc(C)cc2[n+]3C)cc1
OUTPUT: > 95%

INPUT: Give rice sheath blight strains pest or weed control at 400 µg/mL for Cc1ccc(S(=O)(=O)n2c3ccccc3c3c2cc2ccccc2[n+]3CC(C)(C)C)cc1
OUTPUT: > 50%

INPUT: Give rice sheath blight strains pest or weed control at 400 µg/mL for Cc1ccc(S(=O)(=O)n2c3ccc(Cl)cc3c3c2cc2ccccc2[n+]3C)cc1
OUTPUT: > 50%

INPUT: Give rice sheath blight strains pest or weed control at 400 µg/mL for Cc1ccc(S(=O)(=O)n2c3ccccc3c3c2cc2cc(C(F)(F)F)ccc2[n+]3C)cc1
OUTPUT: > 50%

INPUT: Give rice sheath blight strains pest or weed control at 400 µg/mL for Cc1ccc(S(=O)(=O)n2c3ccccc3c3c2cc2ccccc2[n+]3CC2CC2)cc1
OUTPUT: > 50%
